# experimental target: T1, FBF-2 RBD+CT;LST-1 A peptide (Caenorhabditis elegans;Caenorhabditis …, UniProt Q09312;P91820 164-632;19-50, |)
# T1 sequence 1: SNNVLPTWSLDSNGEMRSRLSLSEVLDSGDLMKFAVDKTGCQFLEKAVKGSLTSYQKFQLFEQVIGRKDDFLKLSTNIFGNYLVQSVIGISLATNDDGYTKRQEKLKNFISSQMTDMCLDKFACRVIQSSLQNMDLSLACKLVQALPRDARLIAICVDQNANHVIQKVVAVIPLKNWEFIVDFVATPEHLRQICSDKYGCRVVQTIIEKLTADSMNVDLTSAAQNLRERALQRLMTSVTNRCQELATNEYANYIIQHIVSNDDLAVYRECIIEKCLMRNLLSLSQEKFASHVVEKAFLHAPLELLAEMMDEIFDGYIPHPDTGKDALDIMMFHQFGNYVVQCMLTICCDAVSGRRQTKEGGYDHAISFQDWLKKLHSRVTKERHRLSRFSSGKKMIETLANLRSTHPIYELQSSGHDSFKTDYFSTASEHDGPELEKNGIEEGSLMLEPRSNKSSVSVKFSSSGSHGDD
# T1 sequence 2: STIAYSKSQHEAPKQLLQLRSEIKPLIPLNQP
# experiment notes: EMSA; 150 uM LST-1 A; EMSA: FBF-2 in 20 mM HEPES pH 7.4, 150 mM NaCl, 0.5 mM TCEP mixed 1:1 with 5 nM final RNA in 10 mM HEPES pH 7.4, 0.01% Tween 20, 0.1 mg/ml BSA, 0.1 mg/ml yeast
# condition set: protein: recombinant;recombinant; tags: none (His6-SUMO removed with Ulp1);none (His6-SUMO removed with Ulp1); copies: 1;1; label: 3'-Cy5
property label: pKd
The value called pKd is obtained by taking minus log10 of the concentration in mol/L.

Query AUCAUGUGCCAUAC (ssRNA) [gld-1 FBEa RNA (EMSA)] yields pKd of 6.94
